src = PubChem BioAssay

- target: Torsin-1A (Homo sapiens)
- assayText: torsin A mutant lysate binding on microarrays – cell lysate, small-molecule microarray, COS7 lysate, 635/667 nm fluorescence, primary screen (AID 1150);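 note: score pools 667 nm emission and signal to noise measuring lysate protein binding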
- condition: COS7 hTOR1A mutant lysate, 635 nm fluorescence, higher = more signal
Tag: Met if measured composite z-score is not below 0.6, Not met if it is.

Previously resolved entries follow.
- molecule: "COc1ccc([Si](C)(C)[C@@H]2[C@@H](CCO)O[C@]3(C(=O)N(Cc4ccccc4)c4ccc(NC(=O)[C@H](C)O)cc43)[C@H]2C)cc1"
  classAssignment: "Met"
- molecule: "CCCN1C(=O)[C@@]2(Cc3ccccc31)N=C(c1ccc(OCCCO)cc1)O[C@H]2c1ccccc1"
  classAssignment: "Met"
- molecule: "CC(C)NC(=O)[C@@]1(C)c2ccccc2C(=O)N(Cc2ccc(OC(F)(F)F)cc2)[C@H]1c1ccc(CO)cc1"
  classAssignment: "Not met"
- molecule: "CC(=O)NCCCC[C@@H]1NC(=O)[C@@H]2C[C@H](C(=O)NCCCCCN)[C@H](c3cccc(OCCO)c3)N2C1=O"
  classAssignment: "Not met"
- molecule: "COc1cccc(C)c1NC(=O)O[C@H]1[C@H](OC(=O)Nc2ccc3c(c2)OCO3)[C@@H](OC(=O)Nc2ccc3c(c2)OCO3)[C@@H](OC)O[C@@H]1CO"
  classAssignment: "Met"

Ask: Determine whether measured composite z-score meets or exceeds 0.6 for COc1cc2c(cc1O)C(C1CC1)N(C)CC2 (stereo unspecified)
Reply: Not met

Ask: Determine whether measured composite z-score meets or exceeds 0.6 for `CC1=C2[C@@H](CCc3ccccc3)OB(O)C[C@@H]2[C@@H]2C(=O)N(C)C(=O)[C@@H]2C1`
Reply: Not met

Ask: Determine whether measured composite z-score meets or exceeds 0.6 for CCCCC(CC)C(O)C1C=CC2C(=O)N(C)C(=O)C2N1Nc1ccccc1 (stereo unspecified)
Reply: Not met
